tested on: Salmonella Typhimurium TA1538; assay: bacterial mutagenicity, strain TA1538; type: cell-based; parameters: key: +: Positive Response; -: Negative Response; w+: Weak Positive Response; conditions: without metabolic activation
READOUT_LABEL: Mutagenicity TA1538

>  <COMPOUND>
O=C(CCN1CCN(c2ccc(CO)c(Cl)c2)CC1)c1ccc(Cl)cc1

>  <REPORTED>
w+

$$$$
>  <COMPOUND>
CCN(CC)CCNc1ccc(CO)c2sc3ccccc3c(=O)c12 [Hycanthone, reference compound]

>  <REPORTED>
+

$$$$
>  <COMPOUND>
O=C(CN1CCN(c2ccc(CO)c(Cl)c2)CC1)c1cc2ccccc2o1

>  <REPORTED>
-

$$$$
>  <COMPOUND>
O=C(CN1CCN(c2ccc(CO)c(Cl)c2)CC1)c1ccc(Cl)c(Cl)c1Cl

>  <REPORTED>
-

$$$$

----------
test system: Salmonella Typhimurium TA100; assay: bacterial mutagenicity, strain TA100; format: cell-based; parameters: key: +: Positive Response; -: Negative Response; w+: Weak Positive Response; details: with metabolic activation
READOUT_LABEL: Mutagenicity TA100

>  <MOLECULE>
O=C(CN1CCN(c2ccc(CO)c(Cl)c2)CC1)c1cc2ccccc2o1

>  <READOUT_LABEL>
Mutagenicity TA100

>  <REPORTED>
-

$$$$
>  <MOLECULE>
CCN(CC)CCNc1ccc(CO)c2sc3ccccc3c(=O)c12 [Hycanthone, reference compound]

>  <READOUT_LABEL>
Mutagenicity TA100

>  <REPORTED>
+

$$$$
>  <MOLECULE>
O=C(CCN1CCN(c2ccc(CO)c(Cl)c2)CC1)c1ccc(Cl)cc1

>  <READOUT_LABEL>
Mutagenicity TA100

>  <REPORTED>
+

$$$$
>  <MOLECULE>
O=C(CN1CCN(c2ccc(CO)c(Cl)c2)CC1)c1ccc(Cl)c(Cl)c1Cl

>  <READOUT_LABEL>
Mutagenicity TA100

>  <REPORTED>
+

$$$$

----------
tested on: Salmonella Typhimurium TA98; test: bacterial mutagenicity, strain TA98; assay type: cell-based; set-up: key: +: Positive Response; -: Negative Response; w+: Weak Positive Response; conditions: with metabolic activation

>  <COMPOUND>
O=C(CN1CCN(c2ccc(CO)c(Cl)c2)CC1)c1cc2ccccc2o1 [Cpd. 49]

>  <Mutagenicity TA98>
+

$$$$
>  <COMPOUND>
CCN(CC)CCNc1ccc(CO)c2sc3ccccc3c(=O)c12 [Hycanthone, reference compound]

>  <Mutagenicity TA98>
+

$$$$
>  <COMPOUND>
O=C(CN1CCN(c2ccc(CO)c(Cl)c2)CC1)c1ccc(Cl)c(Cl)c1Cl [Cpd. 8]

>  <Mutagenicity TA98>
-

$$$$
>  <COMPOUND>
O=C(CCN1CCN(c2ccc(CO)c(Cl)c2)CC1)c1ccc(Cl)cc1 [Cpd. 28]

>  <Mutagenicity TA98>
-

$$$$

----------
test system: Salmonella Typhimurium TA98; experiment: bacterial mutagenicity, strain TA98; format: cell-based; set-up: key: +: Positive Response; -: Negative Response; w+: Weak Positive Response; settings: without metabolic activation

>  <COMPOUND>
O=C(CN1CCN(c2ccc(CO)c(Cl)c2)CC1)c1cc2ccccc2o1 [Cpd. 49]

>  <Mutagenicity TA98>
-

$$$$
>  <COMPOUND>
CCN(CC)CCNc1ccc(CO)c2sc3ccccc3c(=O)c12 [Hycanthone, reference compound]

>  <Mutagenicity TA98>
+

$$$$
>  <COMPOUND>
O=C(CN1CCN(c2ccc(CO)c(Cl)c2)CC1)c1ccc(Cl)c(Cl)c1Cl [Cpd. 8]

>  <Mutagenicity TA98>
-

$$$$
>  <COMPOUND>
O=C(CCN1CCN(c2ccc(CO)c(Cl)c2)CC1)c1ccc(Cl)cc1 [Cpd. 28]

>  <Mutagenicity TA98>
-

$$$$

----------
test system: Salmonella Typhimurium TA1538; assay: bacterial mutagenicity, strain TA1538; format: cell-based; design: key: +: Positive Response; -: Negative Response; w+: Weak Positive Response; settings: with metabolic activation

>  <COMPOUND>
O=C(CN1CCN(c2ccc(CO)c(Cl)c2)CC1)c1cc2ccccc2o1

>  <Mutagenicity TA1538>
-

$$$$
>  <COMPOUND>
CCN(CC)CCNc1ccc(CO)c2sc3ccccc3c(=O)c12 [Hycanthone, reference compound]

>  <Mutagenicity TA1538>
+

$$$$
>  <COMPOUND>
O=C(CN1CCN(c2ccc(CO)c(Cl)c2)CC1)c1ccc(Cl)c(Cl)c1Cl

>  <Mutagenicity TA1538>
-

$$$$
>  <COMPOUND>
O=C(CCN1CCN(c2ccc(CO)c(Cl)c2)CC1)c1ccc(Cl)cc1

>  <Mutagenicity TA1538>
+

$$$$

----------
system: Salmonella Typhimurium TA1537; assay: bacterial mutagenicity, strain TA1537; format: cell-based; design: key: +: Positive Response; -: Negative Response; w+: Weak Positive Response; conditions: without metabolic activation
READOUT_LABEL: Mutagenicity TA1537

>  <COMPOUND>
O=C(CCN1CCN(c2ccc(CO)c(Cl)c2)CC1)c1ccc(Cl)cc1

>  <REPORTED>
w+

$$$$
>  <COMPOUND>
O=C(CN1CCN(c2ccc(CO)c(Cl)c2)CC1)c1cc2ccccc2o1

>  <REPORTED>
-

$$$$
>  <COMPOUND>
CCN(CC)CCNc1ccc(CO)c2sc3ccccc3c(=O)c12 [Hycanthone, reference compound]

>  <REPORTED>
+

$$$$
>  <COMPOUND>
O=C(CN1CCN(c2ccc(CO)c(Cl)c2)CC1)c1ccc(Cl)c(Cl)c1Cl

>  <REPORTED>
-

$$$$

----------
tested on: Salmonella Typhimurium TA1535; assay: bacterial mutagenicity, strain TA1535; assay type: cell-based; set-up: key: +: Positive Response; -: Negative Response; w+: Weak Positive Response; conditions: without metabolic activation

>  <MOLECULE>
O=C(CCN1CCN(c2ccc(CO)c(Cl)c2)CC1)c1ccc(Cl)cc1

>  <TARGET_DESC>
Salmonella Typhimurium TA1535

>  <Mutagenicity TA1535>
-

$$$$
>  <MOLECULE>
O=C(CN1CCN(c2ccc(CO)c(Cl)c2)CC1)c1cc2ccccc2o1

>  <TARGET_DESC>
Salmonella Typhimurium TA1535

>  <Mutagenicity TA1535>
-

$$$$
>  <MOLECULE>
CCN(CC)CCNc1ccc(CO)c2sc3ccccc3c(=O)c12 [Hycanthone, reference compound]

>  <TARGET_DESC>
Salmonella Typhimurium TA1535

>  <Mutagenicity TA1535>
-

$$$$
>  <MOLECULE>
O=C(CN1CCN(c2ccc(CO)c(Cl)c2)CC1)c1ccc(Cl)c(Cl)c1Cl

>  <TARGET_DESC>
Salmonella Typhimurium TA1535

>  <Mutagenicity TA1535>
-

$$$$
